Tested on: HeLa Kyoto;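 note: synchronized HeLa Kyoto cells, proteins quantified by TMT10plex mass spectrometry, three biological replicates, mitosis taken 0.5 h after nocodazole release, G1/S directly after double thymidine block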
method: thermal stability score vs G1/S (z-score of summed log2 fold changes over temperatures); higher = more thermally stable than in G1/S
assay-setup: cell cycle stage: early G1 (4.5 h after nocodazole release)
thermal stability score by entry:
Reply briefly: the number, and no unit.

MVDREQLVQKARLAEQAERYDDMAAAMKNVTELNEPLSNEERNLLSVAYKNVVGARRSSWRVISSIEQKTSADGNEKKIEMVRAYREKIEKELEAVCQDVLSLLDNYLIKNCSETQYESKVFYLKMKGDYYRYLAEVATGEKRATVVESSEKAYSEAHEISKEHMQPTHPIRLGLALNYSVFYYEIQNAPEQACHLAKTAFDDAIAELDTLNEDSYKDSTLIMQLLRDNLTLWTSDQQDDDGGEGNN [YWHAG] ... -2.23

**Query** # return recorded thermal stability score for entry MGCFFSKRRKADKESRPENEEERPKQYSWDQREKVDPKDYMFSGLKDETVGRLPGTVAGQQFLIQDCENCNIYIFDHSATVTIDDCTNCIIFLGPVKGSVFFRNCRDCKCTLACQQFRVRDCRKLEVFLCCATQPIIESSSNIKFGCFQWYYPELAFQFKDAGLSIFNNTWSNIHDFTPVSGELNWSLLPEDAVVQDYVPIPTTEELKAVRVSTEANRSIVPISRGQRQKSSDESCLVVLFAGDYTIANARKLIDEMVGKGFFLVQTKEVSMKAEDAQRVFREKAPDFLPLLNKGPVIALEFNGDGAVEVCQLIVNEIFNGTKMFVSESKETASGDVDSFYNFADIQMGI [RP2]
**Result** -0.738

**Query** # return recorded thermal stability score for entry MDPSLLRERELFKKRALSTPVVEKRSASSESSSSSSKKKKTKVEHGGSSGSKQNSDHSNGSFNLKALSGSSGYKFGVLAKIVNYMKTRHQRGDTHPLTLDEILDETQHLDIGLKQKQWLMTEALVNNPKIEVIDGKYAFKPKYNVRDKKALLRLLDQHDQRGLGGILLEDIEEALPNSQKAVKALGDQILFVNRPDKKKILFFNDKSCQFSVDEEFQKLWRSVTVDSMDEEKIEEYLKRQGISSMQESGPKKVAPIQRRKKPASQKKRRFKTHNEHLAGVLKDYSDITSSK [GTF2E2]
**Result** 1.36

**Query** # return recorded thermal stability score for entry MPKKKTGARKKAENRREREKQLRASRSTIDLAKHPCNASMECDKCQRRQKNRAFCYFCNSVQKLPICAQCGKTKCMMKSSDCVIKHAGVYSTGLAMVGAICDFCEAWVCHGRKCLSTHACACPLTDAECVECERGVWDHGGRIFSCSFCHNFLCEDDQFEHQASCQVLEAETFKCVSCNRLGQHSCLRCKACFCDDHTRSKVFKQEKGKQPPCPKCGHETQETKDLSMSTRSLKFGRQTGGEEGDGASGYDAYWKNLSSDKYGDTSYHDEEEDEYEAEDDEEEEDEGRKDSDTESSDLFTNLNLGRTYASGYAHYEEQEN [ZNF330]
**Result** 3.84

**Query** # return recorded thermal stability score for entry MYYKFSGFTQKLAGAWASEAYSPQGLKPVVSTEAPPIIFATPTKLTSDSTVYDYAGKNKVPELQKFFQKADGVPVYLKRGLPDQMLYRTTMALTVGGTIYCLIALYMASQPKNK [COX7A2L]
**Result** -2.74

**Query** # return recorded thermal stability score for entry MAAIRMGKLTTMPAGLIYASVSVHAAKQEESKKQLVKPEQLPIYTAPPLQSKYVEEQPGHLQMGFASIRTATGCYIGWCKGVYVFVKNGIMDTVQFGKDAYVYLKNPPRDFLPKMGVITVSGLAGLVSARKGSKFKKITYPLGLATLGATVCYPVQSVIIAKVTAKKVYATSQQIFGAVKSLWTKSSKEESLPKPKEKTKLGSSSEIEVPAKTTHVLKHSVPLPTELSSEAKTKSESTSGATQFMPDPKLMDHGQSHPEDIDMYSTRS [APOOL]
**Result** -1.29
